test system: C. glabrata; assay: Checkerboard FIC assay in combination with fluconazole (MIC alone and in combination, FICI); assay type: cell-based, Candida glabrata; settings: C. glabrata; FICI using a fluconazole MIC of 128 μg/mL
MEASURE: FICI of combination resulting in fluconazole MIC of: 4 ug/mL (value in parenthesis)

See these solved cases before continuing.
- COMPOUND: "O=C(Cc1ccc(CCC/C(=N\\O)c2ccccc2)cc1)NO [Example 27]"
  TESTED_ON: "C. glabrata"
  NUMBER: 0.281
- COMPOUND: "O=C(Cc1ccc(C(O)CCCc2ccccc2)cc1)NO (stereo not drawn) [Example 59]"
  TESTED_ON: "C. glabrata"
  NUMBER: 0.281
- COMPOUND: "Cc1ccc(CCCCc2ccc(CC(=O)NO)cc2)cc1 [Example 4]"
  TESTED_ON: "C. glabrata"
  NUMBER: 0.511
- COMPOUND: "O=C(Cc1ccc(CCCC(=O)c2ccccc2)cc1)NO [Example 28]"
  TESTED_ON: "C. glabrata"
  NUMBER: 0.156
- COMPOUND: "O=C(Cc1ccc(CCCCc2ccc(OCCCN3CCOCC3)cc2)cc1)NO [Example 16]"
  TESTED_ON: "C. glabrata"
  NUMBER: 0.281
- COMPOUND: "CN1CCN(CCS(=O)(=O)Nc2cccc(CCCCc3ccc(CC(=O)NO)cc3)c2)CC1 [Example 54]"
  TESTED_ON: "C. glabrata"
  NUMBER: 0.156
- COMPOUND: "COCCOCCOCC(=O)Nc1cccc(CCCCc2ccc(CC(=O)NO)cc2)c1 [Example 40]"
  TESTED_ON: "C. glabrata"
  NUMBER: 0.156

1. O=C(Cc1cnc(CCCCc2ccccc2)s1)NO [Example 2]
2. O=C(Cc1ccc(CCCCc2ccc(NS(=O)(=O)CCN3CCOCC3)cc2)cc1)NO [Example 51]
Hi there, can you help? I need to know whether 1 or 2 has lower measured FICI of combination resulting in fluconazole MIC of: 4 ug/mL (value in parenthesis). Please respond with the label that marks your chosen entry.
2

====

test system: C. glabrata; test: Checkerboard FIC assay in combination with fluconazole (MIC alone and in combination, FICI); format: cell-based, Candida glabrata; settings: Nakaseomyces glabratus; MIC of the example compound alone against C. glabrata in the checkerboard assay, approximately 48 hr; read-out: Methylgene MIC
MEASURE: MIC (µg/mL)

- MOLECULE: "COc1ccc(CCCCc2ccc(CC(=O)NO)cc2)cc1OC [Example 13]"
  MIC, µg/mL: 4

I. O=C(Cc1ccc(CCCCc2ccc(O)c(O)c2)cc1)NO [Example 19]
II. CC(C)(C(=O)NO)c1ccc(CCCCc2ccccc2)cc1 [Example 56]
III. O=C(Cc1ccc(CCCCc2ccc(-c3ccccc3)cc2)cc1)NO [Example 5]
IV. Cn1ccc2cc(CCCCc3ccc(CC(=O)NO)cc3)ccc21 [Example 6]
Sort entries by MIC from minimum to maximum value. Reply format: the labels, ordered as requested.
II, IV, I, III
(II: 0.5 µg/mL, IV: 1 µg/mL, I: 2 µg/mL, III: 4 µg/mL)

====

system: C. glabrata; test: Checkerboard FIC assay in combination with fluconazole (MIC alone and in combination, FICI); assay type: cell-based, Candida glabrata; details: C. glabrata; FICI calculated using a fluconazole MIC of 16 μg/mL
MEASURE: FICI of combination resulting in fluconazole MIC of: 8 ug/mL

- COMPOUND: "O=C(Cc1ccc(CCCCc2ccc(F)cc2F)cc1)NO"
  TESTED_ON: "C. glabrata"
  NUMBER: 0.490
- COMPOUND: "CC(C)(C(=O)NO)c1ccc(CCCCc2ccccc2)cc1"
  TESTED_ON: "C. glabrata"
  NUMBER: 0.490
- COMPOUND: "O=C(Cc1ccc(CCCC(F)c2ccccc2)cc1)NO (stereo not shown)"
  TESTED_ON: "C. glabrata"
  NUMBER: 0.313

a. CC(C(=O)NO)c1ccc(CCC(O)Cc2ccccc2)cc1 (stereo not shown)
b. COCCOCCOCCOCCOCCOc1ccc(CCCCc2ccc(CC(=O)NO)cc2)cc1
Exercise: compare a and b ; which one has the greater FICI of combination resulting in fluconazole MIC of: 8 ug/mL? Please respond with the label that marks your chosen entry.
b
(b: 0.625, a: 0.375)
